Readings of Purity (%) for the listed compounds
Experiment: Long-term/accelerated stability study (sealed in aluminum foil bags)
Type: physicochemical
Details: 25 °C/60% RH, 2 months
Where a name gives a salt, the structure may show the parent alone.

[
  {
    "compound": "C[C@H]1CC2(CCN(c3ccc(C(=O)N4CCC(CN5CCN(c6cccc(N[C@H]7CCC(=O)NC7=O)c6)CC5)CC4)cc3F)CC2)CN1c1ccc(C#N)c(Cl)c1 [Amorphous form]",
    "measureUnit": "%",
    "Purity (%)": 98.5
  },
  {
    "compound": "C[C@H]1CC2(CCN(c3ccc(C(=O)N4CCC(CN5CCN(c6cccc(N[C@H]7CCC(=O)NC7=O)c6)CC5)CC4)cc3F)CC2)CN1c1ccc(C#N)c(Cl)c1 [Crystal form B of succinate]",
    "measureUnit": "%",
    "Purity (%)": 98.5
  },
  {
    "compound": "C[C@H]1CC2(CCN(c3ccc(C(=O)N4CCC(CN5CCN(c6cccc(N[C@H]7CCC(=O)NC7=O)c6)CC5)CC4)cc3F)CC2)CN1c1ccc(C#N)c(Cl)c1 [Amorphous form of maleate]",
    "measureUnit": "%",
    "Purity (%)": 98.9
  },
  {
    "compound": "C[C@H]1CC2(CCN(c3ccc(C(=O)N4CCC(CN5CCN(c6cccc(N[C@H]7CCC(=O)NC7=O)c6)CC5)CC4)cc3F)CC2)CN1c1ccc(C#N)c(Cl)c1 [Crystal form A of mandelate]",
    "measureUnit": "%",
    "Purity (%)": 99.3
  }
]

----------
Test: Long-term/accelerated stability study (sealed in aluminum foil bags)
Type: physicochemical
Details: 40 °C/75% RH, 2 months
From the text: The results are shown below. Table 16 The results are shown below. Table 20
Counter-ions that a name gives are not always drawn.

[
  {
    "compound": "C[C@H]1CC2(CCN(c3ccc(C(=O)N4CCC(CN5CCN(c6cccc(N[C@H]7CCC(=O)NC7=O)c6)CC5)CC4)cc3F)CC2)CN1c1ccc(C#N)c(Cl)c1 [Crystal form A of mandelate]",
    "Purity (%)": 99.3
  },
  {
    "compound": "C[C@H]1CC2(CCN(c3ccc(C(=O)N4CCC(CN5CCN(c6cccc(N[C@H]7CCC(=O)NC7=O)c6)CC5)CC4)cc3F)CC2)CN1c1ccc(C#N)c(Cl)c1 [Amorphous form of maleate]",
    "Purity (%)": 98.6
  },
  {
    "compound": "C[C@H]1CC2(CCN(c3ccc(C(=O)N4CCC(CN5CCN(c6cccc(N[C@H]7CCC(=O)NC7=O)c6)CC5)CC4)cc3F)CC2)CN1c1ccc(C#N)c(Cl)c1 [Amorphous form]",
    "Purity (%)": 98.4
  },
  {
    "compound": "C[C@H]1CC2(CCN(c3ccc(C(=O)N4CCC(CN5CCN(c6cccc(N[C@H]7CCC(=O)NC7=O)c6)CC5)CC4)cc3F)CC2)CN1c1ccc(C#N)c(Cl)c1 [Crystal form B of succinate]",
    "Purity (%)": 98.5
  }
]

----------
Experiment: Pharmacokinetic evaluation in cynomolgus monkeys, intragastric administration, plasma LC/MS/MS
Format: in vivo
Conditions: both sexes, cynomolgus monkey, po, i.g., 2.0 mg/kg, read-out: Clearance rate CL/F
metricName: CL/F (mL/min/kg)

[
  {
    "compound": "N#Cc1ccc(O[C@H]2CC[C@H](NC(=O)c3ccc(N4CCC(CN5CCN(c6cc7c(cc6F)C(=O)N(C6CCC(=O)NC6=O)C7=O)CC5)CC4)nn3)CC2)cc1Cl (stereo partly shown)",
    "testValue": 44.6
  }
]

----------
Assay: Long-term/accelerated stability study (sealed in aluminum foil bags)
Type: physicochemical
Details: 40 °C/75% RH, Initial
Where a name gives a salt, the structure may show the parent alone.
Readings of Purity (%) for the listed compounds

[
  {
    "compound": "C[C@H]1CC2(CCN(c3ccc(C(=O)N4CCC(CN5CCN(c6cccc(N[C@H]7CCC(=O)NC7=O)c6)CC5)CC4)cc3F)CC2)CN1c1ccc(C#N)c(Cl)c1 [Crystal form A of mandelate]",
    "Purity (%)": 99.4
  },
  {
    "compound": "C[C@H]1CC2(CCN(c3ccc(C(=O)N4CCC(CN5CCN(c6cccc(N[C@H]7CCC(=O)NC7=O)c6)CC5)CC4)cc3F)CC2)CN1c1ccc(C#N)c(Cl)c1 [Amorphous form of maleate]",
    "Purity (%)": 98.9
  },
  {
    "compound": "C[C@H]1CC2(CCN(c3ccc(C(=O)N4CCC(CN5CCN(c6cccc(N[C@H]7CCC(=O)NC7=O)c6)CC5)CC4)cc3F)CC2)CN1c1ccc(C#N)c(Cl)c1 [Crystal form B of succinate]",
    "Purity (%)": 98.7
  },
  {
    "compound": "C[C@H]1CC2(CCN(c3ccc(C(=O)N4CCC(CN5CCN(c6cccc(N[C@H]7CCC(=O)NC7=O)c6)CC5)CC4)cc3F)CC2)CN1c1ccc(C#N)c(Cl)c1 [Amorphous form]",
    "Purity (%)": 98.8
  }
]

----------
Assay: Long-term/accelerated stability study (sealed in aluminum foil bags)
Format: physicochemical
Conditions: 40 °C/75% RH, 1 month
Text: The results are shown below. Table 16 The results are shown below. Table 20
Structures can show the parent of a compound that is named as a salt.
Readings of Purity (%) for the listed compounds

[
  {
    "compound": "C[C@H]1CC2(CCN(c3ccc(C(=O)N4CCC(CN5CCN(c6cccc(N[C@H]7CCC(=O)NC7=O)c6)CC5)CC4)cc3F)CC2)CN1c1ccc(C#N)c(Cl)c1 [Amorphous form]",
    "Purity (%)": 98.7
  },
  {
    "compound": "C[C@H]1CC2(CCN(c3ccc(C(=O)N4CCC(CN5CCN(c6cccc(N[C@H]7CCC(=O)NC7=O)c6)CC5)CC4)cc3F)CC2)CN1c1ccc(C#N)c(Cl)c1 [Crystal form A of mandelate]",
    "Purity (%)": 99.4
  },
  {
    "compound": "C[C@H]1CC2(CCN(c3ccc(C(=O)N4CCC(CN5CCN(c6cccc(N[C@H]7CCC(=O)NC7=O)c6)CC5)CC4)cc3F)CC2)CN1c1ccc(C#N)c(Cl)c1 [Amorphous form of maleate]",
    "Purity (%)": 98.7
  },
  {
    "compound": "C[C@H]1CC2(CCN(c3ccc(C(=O)N4CCC(CN5CCN(c6cccc(N[C@H]7CCC(=O)NC7=O)c6)CC5)CC4)cc3F)CC2)CN1c1ccc(C#N)c(Cl)c1 [Crystal form B of succinate]",
    "Purity (%)": 98.5
  }
]

----------
Assay: Long-term/accelerated stability study (sealed in aluminum foil bags)
Assay type: physicochemical
Settings: 25 °C/60% RH, up to 6 months
Structures can show the parent of a compound that is named as a salt.
metricName: Crystal form

[
  {
    "molecule": "C[C@H]1CC2(CCN(c3ccc(C(=O)N4CCC(CN5CCN(c6cccc(N[C@H]7CCC(=O)NC7=O)c6)CC5)CC4)cc3F)CC2)CN1c1ccc(C#N)c(Cl)c1 [Amorphous form]",
    "testValue": "No change"
  },
  {
    "molecule": "C[C@H]1CC2(CCN(c3ccc(C(=O)N4CCC(CN5CCN(c6cccc(N[C@H]7CCC(=O)NC7=O)c6)CC5)CC4)cc3F)CC2)CN1c1ccc(C#N)c(Cl)c1 [Crystal form A of mandelate]",
    "testValue": "No change"
  },
  {
    "molecule": "C[C@H]1CC2(CCN(c3ccc(C(=O)N4CCC(CN5CCN(c6cccc(N[C@H]7CCC(=O)NC7=O)c6)CC5)CC4)cc3F)CC2)CN1c1ccc(C#N)c(Cl)c1 [Crystal form B of succinate]",
    "testValue": "No change"
  },
  {
    "molecule": "C[C@H]1CC2(CCN(c3ccc(C(=O)N4CCC(CN5CCN(c6cccc(N[C@H]7CCC(=O)NC7=O)c6)CC5)CC4)cc3F)CC2)CN1c1ccc(C#N)c(Cl)c1 [Amorphous form of maleate]",
    "testValue": "No change"
  }
]
